Could you please report measured IC50 for the items listed next?
Target system: SETD2(1434-1711) (Homo sapiens, UniProt Q9BYW2)
Construct: SETD2 (1434-1711) Assay; catalogue N/A
Sequence (Q9BYW2 1434-1711): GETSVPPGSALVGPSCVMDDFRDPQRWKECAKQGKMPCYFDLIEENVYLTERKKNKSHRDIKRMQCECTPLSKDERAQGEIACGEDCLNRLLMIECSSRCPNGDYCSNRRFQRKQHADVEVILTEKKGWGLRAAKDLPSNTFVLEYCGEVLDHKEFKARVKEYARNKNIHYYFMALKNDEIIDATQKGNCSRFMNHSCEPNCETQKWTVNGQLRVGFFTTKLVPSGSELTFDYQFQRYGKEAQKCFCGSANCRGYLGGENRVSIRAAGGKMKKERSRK
Assay method text: SETD2 (1434-1711) assay
Format: biochemical
Recorded conditions: read-out: SETD2 (1434-1711)
Kindly answer with a numeric value in nM, unit omitted.

Suppose we examine the compound Cc1cccc2cc(C(=O)NCc3cccc4ccnn34)[nH]c12 ; what IC50 value has been reported?
15000

Request the reported IC50 associated with Cc1ccc(F)c2cc(C(=O)Nc3cccc(N4CCN5CCCC5C4)c3)[nH]c12 (centres unmarked)
40

Please give the measured IC50 for this compound: Cc1cc(C(=O)NC2CCC(N)C2)cnc1C(NC(=O)c1cc2cccc(C)c2[nH]1)C1CC1 (centres unmarked)
400

Which measured IC50 value corresponds to CC(=O)N1CCN(C2CCCC(NC(=O)c3cc4c(F)ccc(C)c4[nH]3)C2)C2(CC2)C1 (centres unmarked) ?
2000

Reported IC50, compound Cc1cccnc1C(Cc1cnn(C)c1)NC(=O)c1cc2c(F)ccc(C)c2[nH]1 (centres unmarked) : ____
40

Entry Cc1cc(-c2ccc(CN3CCOCC3)nc2)cnc1C(NC(=O)c1cc2cccc(C)c2[nH]1)C1CC1 (centres unmarked) : reported IC50 = ?
300

Reported IC50 for Cc1ccc(F)c2cc(C(=O)Nc3cc(F)cc(N4CCC(N5CCCC5=O)C4)c3)[nH]c12 (centres unmarked) : what is it?
8

* * *

Target system: SETD2(1434-1711) (Homo sapiens, UniProt Q9BYW2)
Construct: SETD2 (1434-1711) Assay; catalogue N/A
Assay method text: SETD2 (1434-1711) assay
Type: biochemical
Recorded conditions: read-out: SETD2 (1434-1711)
Answer each item with its documented pIC50.
# pIC50 is unitless: minus log10 of the molar concentration; print number only

Item Cc1ccc(F)c2cc(C(=O)Nc3cccc(-n4cnnc4)c3)[nH]c12 has what recorded pIC50?
6.70

Name the recorded pIC50 for CC(=O)N1CCC(c2cc(F)cc(NC(=O)c3cc4c(F)ccc(C)c4[nH]3)c2)C1 (centres unmarked) .
7.52

For the compound Cc1ccc(F)c2cc(C(=O)Nc3cccc(-c4ccn[nH]4)c3)[nH]c12 , what pIC50 is on record?
6.30

# get_value(readout='pIC50', item= Cc1ccc(F)c2cc(C(=O)Nc3cccc(N4CCC(NCc5cnc[nH]5)CC4)c3)[nH]c12 )
7.52

Data request, read-out pIC50, for Cc1ccc(F)c2cc(C(=O)Nc3cc(N4CCN(C)CC4)n4ccnc4c3)[nH]c12
6.30

Query: pIC50; subject: Cc1ccc(F)c2cc(C(=O)NC3CCCC(N4CCn5c(c[nH]c5=O)C4)C3)[nH]c12 (centres unmarked)
6.00

Suppose we examine the compound Cc1cc(Cn2ccnc2)cnc1C(NC(=O)c1cc2c(F)ccc(C)c2[nH]1)C1CC1 (centres unmarked) ; what pIC50 value has been reported?
7.52

// lookup pIC50 for Cc1ccc(F)c2cc(C(=O)Nc3cccc(N4CCCN(C)CC4)c3)[nH]c12
7.40

Any idea what pIC50 was measured for Cc1ccc(F)c2cc(C(=O)Nc3cc(F)cc(N4CCN(C5CC5)C(=O)C4)c3)[nH]c12 ?
8.00

Entry CC(=O)N1C(C)CN(C2CCCC(NC(=O)c3cc4c(F)ccc(C)c4[nH]3)C2)CC1C (centres unmarked) [compound 1162] has what pIC50?
7.15

Item Cc1cccc2cc(C(=O)Nc3ccc4nc(NC5CCNCC5)ncc4c3)[nH]c12 has what recorded pIC50?
6.70

Name the recorded pIC50 for Cc1ccc(F)c2cc(C(=O)N[C@@H]3CCC[C@@H](N4CCN(CC(F)(F)F)CC4)C3)[nH]c12 .
5.12

Request the reported pIC50 associated with Cc1ccc(F)c2cc(C(=O)N[C@@H]3CCC[C@H](N4CCn5c(cn(C)c5=O)C4)C3)[nH]c12
7.40

Fill in: pIC50 of Cc1ccc(F)c2cc(C(=O)N[C@@H]3CCC[C@H](N4CCN(C5CCOC5)CC4)C3)[nH]c12 (some centres unmarked) is ___
7.00

Could you share which pIC50 value was measured for Cc1ccc(F)c2cc(C(=O)Nc3cnn(C4CCN(C)CC4)c3)[nH]c12 ?
4.85

// returns reported pIC50 for input Cc1ccc(F)c2cc(C(=O)Nc3cccc(N4CCOC(CN(C)C)C4)c3)[nH]c12 (centres unmarked)
7.30

Consider the compound COCCN(C(C)=O)C1CCN(C2CCCC(NC(=O)c3cc4c(F)ccc(C)c4[nH]3)C2)C1 (centres unmarked) [compound 843] and give its measured pIC50.
6.70

Query: pIC50; subject: Cc1ccc(F)c2cc(C(=O)NC3CCCC(N4CCN5C(=O)CN(C)C(=O)C5C4)C3)[nH]c12 (centres unmarked) [compound 1102]
5.41

Look at this compound and give its reported pIC50. Cc1cccnc1C(CCN(C)C)NC(=O)c1cc2cccc(C)c2[nH]1 (centres unmarked)
3.89

Value lookup for pIC50; key = COCCC(=O)N1CCN(c2cccc(NC(=O)c3cc4c(F)ccc(C)c4[nH]3)c2)CC1
7.22

Recorded pIC50 of Cc1ccc(F)c2cc(C(=O)Nc3cc(N4CCN(C)CC4)c4nccn4c3)[nH]c12 , please.
7.00

Find the recorded pIC50 belonging to Cc1ccc(F)c2cc(C(=O)Nc3cc(F)cc([C@@H]4CCN5C(=O)CC[C@H]5C4)c3)[nH]c12 and report it.
7.40

Quick one: pIC50 of Cc1ccc(F)c2cc(C(=O)N[C@@H]3CCC[C@@H](N4CCC5(CC4)CNC(=O)C5)C3)[nH]c12 ?
5.77

Given the compound Cc1nc(CNC(=O)c2cc3cccc(C)c3[nH]2)c(C)o1 , what is its reported pIC50?
3.95

What does the record list as pIC50 for Cc1ccc(F)c2cc(C(=O)Nc3cccc(N4CCCC4)c3)[nH]c12 ?
6.70

Recorded pIC50 of Cc1cccc2cc(C(=O)NC(c3ncccc3Cl)C3CC3)[nH]c12 (centres unmarked) , please.
6.10

Data request, read-out pIC50, for Cc1ccc(F)c2cc(C(=O)Nc3cccc(-c4ncon4)c3)[nH]c12
6.70

Quick check: pIC50 of COC(=O)C[C@@H](NC(=O)c1cc2cccc(C)c2[nH]1)c1cccc(Cl)c1 ?
4.79

Requested read-out: pIC50. Entry: Cc1ccc(F)c2cc(C(=O)Nc3cc(F)cc(N4CCC(N5CCOC(CO)C5)C4)c3)[nH]c12 (centres unmarked)
8.00
